# targetUnderTest: T1, mouse GPC3 on SK-HEP-1-muGPC3 cells (mouse, UniProt Q8CFZ4 25-553)
# T1 construct: whole, on cells
# T1 sequence (Q8CFZ4 25-553 limits assumed): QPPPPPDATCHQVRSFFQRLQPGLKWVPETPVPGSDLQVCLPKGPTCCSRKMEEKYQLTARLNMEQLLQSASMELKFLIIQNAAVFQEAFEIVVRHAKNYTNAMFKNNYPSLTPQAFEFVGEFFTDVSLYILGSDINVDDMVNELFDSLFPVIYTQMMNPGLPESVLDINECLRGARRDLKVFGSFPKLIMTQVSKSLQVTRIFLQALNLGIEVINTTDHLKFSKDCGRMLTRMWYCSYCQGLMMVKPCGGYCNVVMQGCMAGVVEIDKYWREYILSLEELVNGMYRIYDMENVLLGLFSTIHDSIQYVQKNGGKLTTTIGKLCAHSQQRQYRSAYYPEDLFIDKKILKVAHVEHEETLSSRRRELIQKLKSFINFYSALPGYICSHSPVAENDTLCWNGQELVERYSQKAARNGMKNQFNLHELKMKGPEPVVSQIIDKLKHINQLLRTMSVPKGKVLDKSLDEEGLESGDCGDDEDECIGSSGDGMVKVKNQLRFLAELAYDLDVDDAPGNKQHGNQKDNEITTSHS
# methodSummary: flow cytometry on SK-HEP-1-muGPC3 cells, PE anti-mouse IgG Fc; also: test concentration or dose not given here
experimentalEndpoint: Positive population, %

binder	experimentalEndpoint	recordedMeasurement
LAb19302 (antibody, V domains shown, Mouse monoclonal antibody purified from hybridoma supernatant) VH: AVQLVESGGGLVRPGGSLKLSCAASGFAFSTYGMSWVRQTPETRLEWVAYISSGGATTYYPDSVKGRFTISRDNAKNTLYLQMSSLKSEDTAMYYCASLSIMIRGWFAYWGQGTLVTVSA VL: DVVMTQTPLSLPVSLGDQASISCRSSQSLVHSNGNTYLHWYLQKPGQSPKVLIYKVSNRFSGVPDRFSGSGSGTDFTLKISRVEAEDLGVYFCSQSTHVPYTFGGGTKLEIK	Positive population, %	81.8%
LAb19309 (antibody, V domains shown, Mouse monoclonal antibody purified from hybridoma supernatant) VH: QVQLQQSGAELVRPGASVTLSCKASGYTFTDYEMHWVKQTPVHGLEWIGGIDPETGNTAYSQKFKGKATLTADKSSSTAYMEVRSLTSEDSAVYYCTRYYSFAYWGQGTLVTVSA VL: DVLMTQTPLSLPVNLGDQASISCRSSQTIVHSNGNTYLEWYLQKPGQSPKLLIYKVSNRFSGVPDRFSGSGSGTDFTLRISRVEAEDLGVYYCFQVSHVPYTFGGGTKLEIK	Positive population, %	1.02%
LAb19301 (antibody, V domains shown, Mouse monoclonal antibody purified from hybridoma supernatant) VH: DVQLQESGPDLVKPSQSLSLTCTVTGYSITSGFSWHWIRQFPGHKLEWMGFMQYSGNTNYNPSLKSRISFTRDTSKNQFFLQLKSVTPEDTATYYCARREEGAWFAYWGQGTLVTVSA VL: DVVMTQTPLSLPVSLGDQASISCGSSQSLVHSNGNTYLHWYLQKPGQSPKLLIYKVSNRFSGVPDRFSGSGSGTDFTLKISRVEAEDLGVYFCSQSTHFPFTFGSGTKLEIK	Positive population, %	17.5%
